Target: T1, Cbx2.wt chromodomain (tags removed) (human, UniProt Q14781 8-70)
T1 sequence: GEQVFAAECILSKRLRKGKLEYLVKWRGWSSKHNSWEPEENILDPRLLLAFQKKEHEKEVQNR
Assay: fluorescence polarization, FITC-peptide 0.5 nM
readout.label: Kd (µM)

- binder: "KQLATKAARKSAPATGGVK (Kme3 (trimethyl-lysine) at the 10th residue (KQLATKAARKme3SAPATGGVK); N-terminus biotin + aminohexanoic acid linker, or FITC at the N-terminus for fluorescence polarization, Synthetic peptide (GenScript); One entry is used for the biotinylated and the FITC-labelled form) [H3K27me3 peptide]"
  readout.label: "Kd"
  readout.value: 100
